Here the recorded IC50 is given for each entry.
TARGET ENTITY: CDK2/Cyclin A2 (Homo sapiens)
ASSAY PROTOCOL: Inhibition of CDK2/cyclin A (unknown origin) by HTRF kinase assay
Respond with the bare value in nM.

Example entries begin here.
[[record]]
compound = "O=c1[nH]c2sccc2c(NC2CN3CCC2CC3)c1-c1nc2ccccc2[nH]1 (centres undefined)"
observed_value = 1630

[[record]]
compound = "O=c1[nH]c2sc(Cl)cc2c(NC2CN3CCC2CC3)c1-c1nc2ccccc2[nH]1 (centres undefined)"
observed_value = 3190

[[record]]
compound = "O=c1[nH]c2sccc2c(N[C@H]2CCCNC2)c1-c1nc2ccccc2[nH]1"
observed_value = 852


# evaluate next
input: Could you tell me which IC50 is on file for O=c1[nH]c2sc(Br)cc2c(NC2CCCNC2)c1-c1nc2ccccc2[nH]1 (centres undefined) ?
output: 246

---

Organism: Homo sapiens
ASSAY PROTOCOL: Selectivity index, ratio of IC50 for PKC (unknown origin) to IC50 for Chk1 (unknown origin)
PROPERTY: Ratio IC50

Example entries begin here.
[[record]]
compound = "O=c1[nH]c2sc(Br)cc2c(NC2CCCNC2)c1-c1nc2ccccc2[nH]1 (centres undefined)"
property = "Ratio IC50"
observed_value = "> 20"

[[record]]
compound = "O=c1[nH]c2sc(Cl)cc2c(NC2CCCNC2)c1-c1nc2ccccc2[nH]1 (centres undefined)"
property = "Ratio IC50"
observed_value = "> 20"

[[record]]
compound = "O=c1[nH]c2sccc2c(NC2CCCNC2)c1-c1nc2ccccc2[nH]1 (centres undefined)"
property = "Ratio IC50"
observed_value = "> 20"

[[record]]
compound = "O=c1[nH]c2sccc2c(NC2CN3CCC2CC3)c1-c1nc2ccccc2[nH]1 (centres undefined)"
property = "Ratio IC50"
observed_value = 100


input: Could you tell me which Ratio IC50 is on file for O=c1[nH]c2sc(Cl)cc2c(NC2CN3CCC2CC3)c1-c1nc2ccccc2[nH]1 (centres undefined) ?
output: 100

input: Could you tell me which Ratio IC50 is on file for O=c1[nH]c2sccc2c(N[C@H]2CCCNC2)c1-c1nc2ccccc2[nH]1 ?
output: > 20

input: Could you tell me which Ratio IC50 is on file for COc1ccc2[nH]c(-c3c(NC4CN5CCC4CC5)c4cc(Cl)sc4[nH]c3=O)nc2c1 (centres undefined) ?
output: 100

input: Could you tell me which Ratio IC50 is on file for COc1ccc2[nH]c(-c3c(N[C@H]4CCCNC4)c4cc(Cl)sc4[nH]c3=O)nc2c1 ?
output: > 20

input: Could you tell me which Ratio IC50 is on file for O=c1[nH]c2ccsc2c(NC2CCCNC2)c1-c1nc2ccccc2[nH]1 (centres undefined) ?
output: > 20

---

Here the recorded IC50 is given for each entry.
TARGET ENTITY: CDK2/Cyclin A2 (Homo sapiens)
ASSAY PROTOCOL: Inhibition of CDK2/cyclin A (unknown origin) by HTRF kinase assay
Please give the number followed by its unit.

Example entries begin here.
[[record]]
molecule = "O=c1[nH]c2sccc2c(NC2CCCNC2)c1-c1nc2ccccc2[nH]1 (stereo not given)"
observed_value = "849 nM"

[[record]]
molecule = "O=c1[nH]c2ccsc2c(NC2CCCNC2)c1-c1nc2ccccc2[nH]1 (stereo not given)"
observed_value = "256 nM"


input: Could you tell me which IC50 is on file for COc1ccc2[nH]c(-c3c(NC4CN5CCC4CC5)c4cc(Cl)sc4[nH]c3=O)nc2c1 (stereo not given) ?
output: 4300 nM

input: Could you tell me which IC50 is on file for O=c1[nH]c2sc(Cl)cc2c(NC2CCCNC2)c1-c1nc2ccccc2[nH]1 (stereo not given) ?
output: 334 nM

input: Could you tell me which IC50 is on file for COc1ccc2[nH]c(-c3c(N[C@H]4CCCNC4)c4cc(Cl)sc4[nH]c3=O)nc2c1 ?
output: 393 nM
